- testTarget: FAD-linked sulfhydryl oxidase ALR (Homo sapiens, UniProt P55789)
- Sequence (P55789 whole entry): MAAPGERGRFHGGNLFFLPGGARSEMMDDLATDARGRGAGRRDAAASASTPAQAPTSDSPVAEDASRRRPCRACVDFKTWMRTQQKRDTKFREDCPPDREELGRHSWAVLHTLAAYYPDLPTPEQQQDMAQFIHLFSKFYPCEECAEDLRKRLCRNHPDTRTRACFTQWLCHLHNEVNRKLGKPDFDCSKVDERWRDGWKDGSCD
- experimentNotes: ALR-catalysed DTT oxidation blockers – biochemical, H2O2 detection, luminescence, cherry-pick, dose response (AID 493248)
The source made the active and inactive calls.
quantity: AC50

// solved cases for AC50 follow
Oc1ccc(O)c(-c2cnns2)c1 ... 4.57 µM (active)
COc1cccc(NC(=O)NNC(=O)CCc2ccc(O)c(O)c2)c1 ... 3.12 µM (active)
C=CCn1c(S)nnc1-c1cccc([N+](=O)[O-])c1 ... 9.06 µM (active)
C1=C(c2ccco2)N2CCN=C2S1 ... 2.33 µM (active)
CN(C)/C=N/c1nc(-c2ccc3c(c2)OCO3)cs1 ... 10.9 µM (active)
Cc1nnc(SCc2cnc(-c3ccccc3)o2)nc1O ... 0.547 µM (active)

Exercise: Request - read-out AC50 | tested on FAD-linked sulfhydryl oxidase ALR (Homo sapiens, UniProt P55789) | compound O=C(O)CCc1ccc(-c2ccccc2)n1NC(=O)c1sc2ccccc2c1Cl
Solution: 1.72 µM (active)

Exercise: Queued: COC(=O)Cc1ccc(O)c(N)c1
Solution: 21.6 µM (active)

---

Please consider the recorded AC50 for Cytochrome P450 1A2 (Homo sapiens, UniProt P05177) in what follows.

Cc1nn(C)cc1C(=O)NN=C(S)Nc1ccccc1 ... 15.8 µM (inconclusive)

Now turn to the next molecule.
Exercise: Record request: AC50 value, item C[C@@H](Cc1ccccc1)NCCC(c1ccccc1)c1ccccc1
Solution: 15.8 µM (inconclusive)

---

Recorded IC50, one value per entry.
- testTarget: Glucose-6-phosphate 1-dehydrogenase (Homo sapiens, UniProt P11413)
- Sequence (P11413 whole entry): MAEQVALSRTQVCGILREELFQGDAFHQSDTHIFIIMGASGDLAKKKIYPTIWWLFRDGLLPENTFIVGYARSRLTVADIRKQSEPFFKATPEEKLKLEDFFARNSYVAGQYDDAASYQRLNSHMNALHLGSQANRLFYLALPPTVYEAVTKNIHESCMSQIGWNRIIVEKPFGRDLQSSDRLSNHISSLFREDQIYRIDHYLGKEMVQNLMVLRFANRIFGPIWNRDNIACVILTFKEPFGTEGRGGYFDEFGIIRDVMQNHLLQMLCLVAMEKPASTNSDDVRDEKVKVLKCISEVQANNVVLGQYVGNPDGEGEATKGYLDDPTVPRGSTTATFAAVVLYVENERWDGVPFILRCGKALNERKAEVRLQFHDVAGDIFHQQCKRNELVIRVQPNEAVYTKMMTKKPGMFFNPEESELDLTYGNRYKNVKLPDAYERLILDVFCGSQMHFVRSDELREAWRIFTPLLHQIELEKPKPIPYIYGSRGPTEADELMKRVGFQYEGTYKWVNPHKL
- experimentNotes: inhibition of Homo sapiens G6PD, dose series – biochemical, fluorescence, selectivity assay for P. falciparum G6PD inhibitor project, dose response (AID 504792)
- Format: functional
Activity calls are given as the source filed them.

Solved cases below.
CCC(=O)OCCNc1cc(Sc2nc3ccccc3s2)c2nonc2c1[N+](=O)[O-] ... > 80 µM (inactive)
Cc1cc(C)c(S(=O)(=O)Nc2cc(SCC(=O)O)c(O)c3ccccc23)cc1C ... 8.73 µM (active)
CCOC(=O)c1c(C2COc3ccccc3O2)csc1NC(=O)c1ccco1 (stereo not given) ... > 80 µM (inactive)
Cc1cc(C(=O)O)ccc1-n1c(C)cc(C=C2C(=O)c3ccccc3C2=O)c1C ... > 80 µM (inactive)
O=c1[nH]c2ccc(NCc3ccccc3OCc3ccc(Cl)cc3)cc2[nH]1 ... > 80 µM (inactive)
COc1cc(NCCCn2ccc(NC(=O)OCc3ccccc3)nc2=O)cc(OC)c1OC ... > 80 µM (inactive)
Cc1cc(C)c2c(=N)c3ccccc3n(CCCCCCCCn3c4ccccc4c(=N)c4c(C)cc(C)nc43)c2n1 ... 29 µM (inactive)
C[n+]1c(-c2ccccc2)cc2c(=Cc3ccc([N+](=O)[O-])cc3)c3ccccc3n21 ... > 80 µM (inactive)

Exercise: What does the record list as IC50 for Cn1sc2ccccc2c1=O ?
Solution: 37.3 µM (inactive)

Exercise: Same for COc1ccc(C(=O)Nc2cc(Cl)ccc2C(=O)O)cc1
Solution: > 80 µM (inactive)

---

- testTarget: Dual specificity protein phosphatase 3 (Homo sapiens, UniProt P51452)
- Sequence (P51452 whole entry): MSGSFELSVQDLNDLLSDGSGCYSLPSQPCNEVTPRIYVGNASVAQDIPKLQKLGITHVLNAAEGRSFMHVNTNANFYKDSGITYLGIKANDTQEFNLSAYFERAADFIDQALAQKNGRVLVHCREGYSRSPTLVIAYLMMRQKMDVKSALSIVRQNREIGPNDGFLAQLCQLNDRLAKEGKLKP
- experimentNotes: VHR phosphatase inhibition, dose response, selectivity assay for STEP inhibitor project, biochemical (AID 602374)
- Assay type: functional
- assayContext: read-out: IC50_Mean
Calls of active or inactive are those of the source.
quantity: IC50

CCOC(=O)N1CCC(N(CCN(C)C)C(=S)Nc2cc(Cl)ccc2C)CC1 ... 2.14 µM (active)
COc1ccccc1NS(=O)(=O)c1cc(NC(=S)NCCN2CCOCC2)ccc1N1CCOCC1 ... 0.498 µM (active)
COc1ccc(-n2nc(C(=O)NCC(=O)Nc3ccccn3)c3ccccc3c2=O)cc1Cl ... 3.14 µM (active)

// below: IC50 requested for another compound
Exercise: # get_value(readout='IC50', item= C/C(=N\Nc1ccc(S(N)(=O)=O)cc1[N+](=O)[O-])c1cccs1 )
Solution: 3.04 µM (active)
